# assay-text: In vitro metabolic stability, mouse liver microsomes
# Type: in vitro ADME
# condition-description: 30 min treatment of mouse liver microsomes

[
  {
    "smiles-structure": "CCOC(=O)C1=C(Nc2ccccc2)OC(=Cc2c[nH]c3ncccc23)C1=O",
    "MLM % (remaining % of parent compound) (%)": 7.9
  },
  {
    "smiles-structure": "CCOC(=O)C1=C(Nc2ccccc2C)OC(=Cc2c[nH]c3ncccc23)C1=O",
    "MLM % (remaining % of parent compound) (%)": 24
  },
  {
    "smiles-structure": "CCOC(=O)C1=C(Nc2ccccc2Cl)OC(=Cc2c[nH]c3ncccc23)C1=O",
    "MLM % (remaining % of parent compound) (%)": 58
  },
  {
    "smiles-structure": "CCOC(=O)C1=C(Nc2ccc(F)cc2)OC(=Cc2c[nH]c3ncccc23)C1=O",
    "MLM % (remaining % of parent compound) (%)": 25
  }
]
